- System: CEM cells HIV-1 protection, formazan growth assay
- experiment: NCI AIDS Antiviral Assay;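 active means compounds giving half or more protection of infected cells from virus-caused growth loss, again on retest; inactive means the rest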
The reply should name one outcome from yes = active, no = inactive

Test call for this compound, please: COC(=O)CC[N+]1([O-])CC1 no

Test call for this compound, please: CCCCCCCCCCNCCSSCCNC(C)=O no

Test call for this compound, please: CCOC(=O)C(Cc1c2ccccc2cc2ccccc12)(NC(C)=O)C(=O)OCC no

Test call for this compound, please: CC(C)(C)C(=O)/C=C/c1ccc(Cl)cc1 no

Test call for this compound, please: COc1ccc(OC)c(C(O)C(C)NC(C)(C)C)c1 (centres undefined) no

Test call for this compound, please: c1ccc(C2=NC3(CCCCC3)N=C2c2ccccc2)cc1 no

Test call for this compound, please: COc1cc(N(C)C)c(OC)cc1/C=C1\Cc2ccccc2C1=O no

Test call for this compound, please: COC1=CC(=O)C(CO)=CC1=O no

Test call for this compound, please: CC(C)(C)C(C)(C)SSC(C)(C)C(C)(C)C no

Test call for this compound, please: C=CCNC(=S)N1c2ccccc2NC(=O)CC1C (centres undefined) no

Test call for this compound, please: COc1cc2c(cc1OC)C(C#N)C2 (centres undefined) no

Test call for this compound, please: CCOc1cnc([C@H]2CCC3[C@@H]4CC=C5C[C@@H](OC(=O)CCC(=O)O)CC[C@]5(C)C4CC[C@@]32C)s1 (some centres undefined) no

Test call for this compound, please: c1ccc(-c2c(-c3cccs3)[nH]c(-c3cccs3)c2-c2ccccn2)nc1 yes

Test call for this compound, please: COC(=O)Nc1nc2ccccc2c(=O)[nH]1 no

Test call for this compound, please: NC1=NC(=O)C(c2ccccc2)S1 (centres undefined) no

Test call for this compound, please: N=c1c2c(-c3ccccc3)c[nH]c2ncn1N no

Test call for this compound, please: CN(CCC(N)CC(=O)NC1C=CC(n2ccc(N)nc2=O)OC1C(=O)O)C(=N)N (centres undefined) no

Test call for this compound, please: c1ccc([P+](CCOCC[P+](c2ccccc2)(c2ccccc2)c2ccccc2)(c2ccccc2)c2ccccc2)cc1 no

Test call for this compound, please: COC(=O)C(Cc1ccc2c(c1)CCCC2)Cc1cc2c(cc1C(O)OC)CCC2 (centres undefined) no

Test call for this compound, please: [N-]=[N+]=CC(=O)OCCCCl no

Test call for this compound, please: CO[C@@H]1C2OC(C)(C)OC2O[C@@H]1C1OC[C@H]2O[C@@H](n3ccc(=O)[nH]c3=O)C(O)[C@H]2N1O (some centres undefined) no

Test call for this compound, please: Oc1cc(C2OCCCO2)cc(O)c1O no

Test call for this compound, please: COc1ccc(-c2c(C#N)c(N)n(C3OCC(O)C(O)C3O)c(=S)c2C#N)cc1 (centres undefined) no

Test call for this compound, please: O=C1OC(CCCl)(c2ccccc2)CC1CN1CCOCC1 (centres undefined) no
